assaySummary: RAM signaling pathway blockade in yeast – S. cerevisiae, Pdr1DBD-CYC8 efflux-inhibited sensitized strain, primary screen (AID 1298);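 note: 0% = DMSO untreated cells without growth and 100% = 10 µM 1-NA-PP1 full growth; higher means more yeast growth rescued from 5-FOA killing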
conditionSet: S. cerevisiae cbk1-as DSE1-URA3 strain, 5-FOA growth OD615, 2 d; at 50 µM; stronger effect = higher value
measurementName: RAM network inhibition (%)
Give just the numeric value; % need not be written.

- compound: "CC1CCCC(NC(=O)c2ccc(CNc3c(N4CCCC4)c(=O)c3=O)cc2)C1C (stereo not given)"
  testValue: 2.5
- compound: "COCCn1c(=O)[nH]c2cc(C(=O)N3CCN(c4ccccc4OC)CC3)ccc2c1=O"
  testValue: 6.96
- compound: "COC(=O)c1cc(=O)n(Cc2ccc3c(c2)OCO3)c(=Nc2ccccc2)s1"
  testValue: 5.96

Give reported RAM network inhibition value for Cc1ccc(S(=O)(=O)N2CCC(C(=O)N3CCN(Cc4ccccc4)CC3)CC2)cc1 4.44

Give reported RAM network inhibition value for Cc1cc2nc(-c3ccco3)cc(C(F)(F)F)n2n1 2.83

Give reported RAM network inhibition value for CCN1CCN(C(CNC(=O)c2ccc3c(c2)OCO3)c2cccnc2)CC1 (stereo not given) 5.59

Give reported RAM network inhibition value for Cc1cc(N2CCCC2)n2nc(C)nc2n1 1.98

Give reported RAM network inhibition value for O=C(Cn1c(=O)sc2ccccc21)NCCOc1ccccc1F 10.5

Give reported RAM network inhibition value for Cc1ccc2oc(-c3ccc(NC(=O)CC(C)C)cc3)nc2c1 7.81

Give reported RAM network inhibition value for COc1ccc(N(CC(=O)N2CCc3ccccc3C2)S(=O)(=O)c2c(C)[nH]c(=O)[nH]c2=O)cc1 3.41

Values were extracted from PubChem BioAssay.
